# experiment description: chemical genetic growth profiling, strain panel (AID 1159580);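 note: tested at 20 µM; growth read once vehicle control cultures reached saturation at 30 °C; 1 = growth at the plate median or of vehicle wells; lower values mean less growth of the strain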
# experimental parameters: S. cerevisiae deletion strains, growth OD, locus YLR262C, strain YPT6 (second series)
Out of some 5,500 compounds screened, about 2,000 (36%) were called active. Roughly 18% stayed inconclusive and do not appear here. Cut-off read from the data, not from the text of the source: active = normalized growth mostly below about 0.91 (no sharp cut-off); inconclusive = no clear call, values can overlap the other calls; inactive = mostly above about 0.92. Some of the results follow.
Use one of these outcomes when replying: active, inactive

IN: Returns: the outcome recorded for Nc1ncn([C@@H]2O[C@H](CO)[C@@H](O)[C@H]2O)c(=O)n1 in this assay.
OUT: inactive

* * *

Documented normalized growth across a set of compounds
# experiment description: chemical genetic growth profiling, strain panel (AID 1159580);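 note: tested at 20 µM; growth read once vehicle control cultures reached saturation at 30 °C; 1 = growth at the plate median or of vehicle wells; lower values mean less growth of the strain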
# experimental parameters: S. cerevisiae deletion strains, growth OD, locus YEL003W, strain gim4, hits give low values
The whole screen tested about 5,500 compounds, of which about 2,000 (36%) were called active. Inconclusive results (about 18%) are left out. The list shows a part of the results.
Hey, just send me the number, nothing else.

IN: Input C=C(CC)C(=O)c1ccc(OCC(=O)O)c(Cl)c1Cl , output reported normalized growth.
OUT: 0.985

Others:
IN: Input C[C@H]1[C@H]2CCC3C4CC=C5C[C@@H](N(C)C)CC[C@]5(C)C4CC[C@@]32CN1C (stereo not given in full) , output reported normalized growth.
OUT: 0.994

IN: Input CCCCC(CC)CN1CN(CC(CC)CCCC)CC(C)(N)C1 (stereo not given) , output reported normalized growth.
OUT: 0.0521

IN: Input COc1ccccc1OCCNCC(O)COc1cccc2[nH]c3ccccc3c12 (stereo not given) , output reported normalized growth.
OUT: 1.02

IN: Input O=[N+]([O-])c1cc([As](=O)(O)O)ccc1O , output reported normalized growth.
OUT: 0.963

IN: Input CC(C)(C)NC[C@@H](O)COc1nsnc1N1CCOCC1 , output reported normalized growth.
OUT: 1.02

IN: Input CC(=O)O[C@@H]1C[C@@]2(C)[C@H](c3ccoc3)C[C@H]3O[C@]32[C@]2(C)C(=O)C(O)=C3C(C)(C)C(=O)C=C[C@]3(C)C12 (stereo not given in full) , output reported normalized growth.
OUT: 0.927

IN: Input C1CCN2C[C@@H]3C[C@H](CN4CCCC[C@@H]34)[C@H]2C1 , output reported normalized growth.
OUT: 1.01

IN: Input CC1(C)C(=O)C=C[C@@]2(C)C1=C(O)C(=O)[C@]1(C)C2CC[C@@]2(C)[C@H](c3ccoc3)C[C@H]3O[C@]321 (stereo not given in full) , output reported normalized growth.
OUT: 0.851

IN: Input COc1cc2c(c(OC)c1OC)-c1ccc(OC)c(=O)cc1[C@@H](NC(C)=O)CC2 , output reported normalized growth.
OUT: 1

IN: Input O=C(O[C@@H]1Cc2c(O)cc(O)cc2O[C@@H]1c1cc(O)c(O)c(O)c1-c1c([C@H]2Oc3cc(O)cc(O)c3C[C@H]2O)cc(O)c(O)c1O)c1cc(O)c(O)c(O)c1 , output reported normalized growth.
OUT: 0.968

IN: Input C1CNCCN1 , output reported normalized growth.
OUT: 1.01

IN: Input CC(=O)O[C@@H]1CC2C(C)(C)C=CC(=O)[C@]2(C)C2CC[C@@]3(C)[C@H](c4ccoc4)OC(=O)C4OC43[C@@]21C (stereo not given in full) , output reported normalized growth.
OUT: 0.984

IN: Input O=C1O[C@H](C(O)CO)C(O)=C1O (stereo not given in full) , output reported normalized growth.
OUT: 1

IN: Input O=C1CCCC2C3CC(CN12)[C@@H]1CCCCN1C3 (stereo not given in full) , output reported normalized growth.
OUT: 1

IN: Input COC(=O)C[C@H]1C(C)(C)C(=O)[C@@H]2CC3=C4CC(=O)O[C@@H](c5ccoc5)[C@]4(C)CCC3[C@@]1(C)C2=O (stereo not given in full) , output reported normalized growth.
OUT: 0.996

IN: Input O=[N+]([O-])c1ccc(O)c([N+](=O)[O-])c1 , output reported normalized growth.
OUT: 0.829

IN: Input CC(C)NCC(O)c1ccc2ccccc2c1 (stereo not given) , output reported normalized growth.
OUT: 1.01

IN: Input C=CC(C1=CC(=O)C(OC)=CC1=O)c1ccccc1 (stereo not given) , output reported normalized growth.
OUT: 0.823

IN: Input Nc1ccc(S(=O)(=O)Nc2ccccn2)cc1 , output reported normalized growth.
OUT: 1.02
